target: receptor tyrosine kinase AXL (Homo sapiens); construct: 50 μL of AXL kinase domain recombinant protein diluted in reaction buffer was added to start the reaction; made in house; host or cells: insect cells (baculovirus expression system); assay: Enzyme activity of receptor tyrosine kinase AXL (ELISA); type: biochemical; conditions: 100 nM; read-out: AXL activity Inhibitory rate(%)
inhibition at 0.1 µM for assorted compounds
Assay endpoint: inhibition at 0.1 µM (%)

[[record]]
compound = "O=C(Nc1ccc(Oc2ncnc3cc4c(cc23)OCCOCCOCCO4)c(Cl)c1)c1c2n(n(-c3ccc(F)cc3)c1=O)CCCC2 [DC621068]"
measurement_units = "%"
readout_number = 85.8

[[record]]
compound = "O=C(Nc1ccc(Oc2ncnc3cc4c(cc23)OCCOCCOCCO4)c(F)c1)c1c2n(n(-c3ccccc3)c1=O)CCCC2 [DC621061]"
measurement_units = "%"
readout_number = 91.8

[[record]]
compound = "COCCOc1cc2ncnc(Oc3ccc(NC(=O)c4c5n(n(-c6cc(F)ccc6F)c4=O)CCCC5)cc3F)c2cc1OCCOC [DC621024]"
measurement_units = "%"
readout_number = 100

[[record]]
compound = "O=C(Nc1ccc(Oc2ncnc3cc4c(cc23)OCCOCCOCCO4)c(Cl)c1)c1c2n(n(-c3ccccc3)c1=O)CCCC2 [DC621062]"
measurement_units = "%"
readout_number = 70.6

[[record]]
compound = "COCCOc1cc2ncnc(Oc3ccc(NC(=O)c4c5n(n(-c6ccccc6)c4=O)CCCC5)cc3C(F)(F)F)c2cc1OCCOC [DC621072]"
measurement_units = "%"
readout_number = 75.9

[[record]]
compound = "O=C(Nc1ccc(Oc2ncnc3cc4c(cc23)OCCOCCOCCO4)c(F)c1)c1c2n(n(-c3ccc(F)cc3)c1=O)CCCC2 [DC621067]"
measurement_units = "%"
readout_number = 89

[[record]]
compound = "O=C(Nc1ccc(Oc2ncnc3cc4c(cc23)OCCOCCOCCO4)c(Cl)c1)c1c2n(n(-c3cc(F)ccc3F)c1=O)CCCC2 [DC621064]"
measurement_units = "%"
readout_number = 83.4

[[record]]
compound = "COCCOc1cc2ncnc(Oc3ccc(NC(=O)c4c5n(n(-c6ccccc6F)c4=O)CCCC5)cc3C(F)(F)F)c2cc1OCCOC [DC621092]"
measurement_units = "%"
readout_number = 78

[[record]]
compound = "COc1nc(OC)nc(Oc2ccc(NC(=O)c3c4n(n(-c5ccccc5)c3=O)CCCC4)cc2)n1 [DC621003, reference compound]"
measurement_units = "%"
readout_number = 2.8

[[record]]
compound = "COCCOc1cc2ncnc(Oc3ccc(NC(=O)c4c5n(n(-c6ccc(F)cc6)c4=O)CCCC5)cc3Cl)c2cc1OCCOC [DC621100]"
measurement_units = "%"
readout_number = 93

[[record]]
compound = "COCCOc1cc2ncnc(Oc3ccc(NC(=O)c4c5n(n(-c6cc(F)ccc6F)c4=O)CCCC5)cc3Cl)c2cc1OCCOC [DC621080]"
measurement_units = "%"
readout_number = 100

[[record]]
compound = "COCCOc1cc2ncnc(Oc3ccc(NC(=O)c4c5n(n(-c6ccccc6)c4=O)CCCC5)cc3Cl)c2cc1OCCOC [DC621070]"
measurement_units = "%"
readout_number = 91.1

[[record]]
compound = "O=C(Nc1ccc(Oc2ncnc3cc4c(cc23)OCCOCCOCCO4)c(F)c1)c1c2n(n(-c3cc(F)ccc3F)c1=O)CCCC2 [DC621063]"
measurement_units = "%"
readout_number = 91.8

[[record]]
compound = "COCCOc1cc2ncnc(Oc3ccc(NC(=O)c4c5n(n(-c6ccc(F)cc6)c4=O)CCCC5)cc3F)c2cc1OCCOC [DC621044]"
measurement_units = "%"
readout_number = 80.7


---

target: receptor tyrosine kinase AXL (Homo sapiens, UniProt P30530); construct: 50 μL of AXL kinase domain recombinant protein diluted in reaction buffer was added to start the reaction; made in house; host or cells: insect cells (baculovirus expression system); assay: Enzyme activity of receptor tyrosine kinase AXL (ELISA); type: biochemical; settings: 100 nM; read-out: AXL activity Inhibitory rate(%)
Sequence (P30530 536-807 limits assumed): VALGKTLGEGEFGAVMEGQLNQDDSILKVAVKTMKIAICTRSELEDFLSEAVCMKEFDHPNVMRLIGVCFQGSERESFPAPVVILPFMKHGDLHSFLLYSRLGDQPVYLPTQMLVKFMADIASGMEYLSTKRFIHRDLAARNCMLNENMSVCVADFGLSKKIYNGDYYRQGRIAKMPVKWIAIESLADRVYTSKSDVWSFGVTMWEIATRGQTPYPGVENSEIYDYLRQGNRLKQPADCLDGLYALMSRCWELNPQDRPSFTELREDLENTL
Assay endpoint: inhibition at 0.1 µM (%)

[[record]]
molecule = "Cc1nccc(Oc2ccc(NC(=O)c3c4n(n(-c5ccccc5)c3=O)CCCC4)cc2)n1 [DC621005, reference compound]"
measurement_units = "%"
readout_number = 18.3

[[record]]
molecule = "COCCOc1cc2ncnc(Oc3ccc(NC(=O)c4c5n(n(-c6ccc(F)cc6)c4=O)CCCC5)c(F)c3)c2cc1OCCOC"
measurement_units = "%"
readout_number = 84.2

[[record]]
molecule = "COCCOc1cc2ncnc(Oc3ccc(NC(=O)c4c5n(n(-c6ccccc6F)c4=O)CCCC5)cc3Cl)c2cc1OCCOC"
measurement_units = "%"
readout_number = 92.7

[[record]]
molecule = "O=C(Nc1ccc(Oc2ncnc3cc4c(cc23)OCCOCCOCCO4)c(F)c1)c1c2n(n(-c3ccccc3F)c1=O)CCCC2"
measurement_units = "%"
readout_number = 95


---

molecular target: receptor tyrosine kinase c-Met (Homo sapiens, UniProt P08581); assay: In vitro c-Met kinase inhibitory activity; assay type: biochemical; conditions: 100 nM; two values per compound; 0.1 µM
Sequence (P08581 25-1390): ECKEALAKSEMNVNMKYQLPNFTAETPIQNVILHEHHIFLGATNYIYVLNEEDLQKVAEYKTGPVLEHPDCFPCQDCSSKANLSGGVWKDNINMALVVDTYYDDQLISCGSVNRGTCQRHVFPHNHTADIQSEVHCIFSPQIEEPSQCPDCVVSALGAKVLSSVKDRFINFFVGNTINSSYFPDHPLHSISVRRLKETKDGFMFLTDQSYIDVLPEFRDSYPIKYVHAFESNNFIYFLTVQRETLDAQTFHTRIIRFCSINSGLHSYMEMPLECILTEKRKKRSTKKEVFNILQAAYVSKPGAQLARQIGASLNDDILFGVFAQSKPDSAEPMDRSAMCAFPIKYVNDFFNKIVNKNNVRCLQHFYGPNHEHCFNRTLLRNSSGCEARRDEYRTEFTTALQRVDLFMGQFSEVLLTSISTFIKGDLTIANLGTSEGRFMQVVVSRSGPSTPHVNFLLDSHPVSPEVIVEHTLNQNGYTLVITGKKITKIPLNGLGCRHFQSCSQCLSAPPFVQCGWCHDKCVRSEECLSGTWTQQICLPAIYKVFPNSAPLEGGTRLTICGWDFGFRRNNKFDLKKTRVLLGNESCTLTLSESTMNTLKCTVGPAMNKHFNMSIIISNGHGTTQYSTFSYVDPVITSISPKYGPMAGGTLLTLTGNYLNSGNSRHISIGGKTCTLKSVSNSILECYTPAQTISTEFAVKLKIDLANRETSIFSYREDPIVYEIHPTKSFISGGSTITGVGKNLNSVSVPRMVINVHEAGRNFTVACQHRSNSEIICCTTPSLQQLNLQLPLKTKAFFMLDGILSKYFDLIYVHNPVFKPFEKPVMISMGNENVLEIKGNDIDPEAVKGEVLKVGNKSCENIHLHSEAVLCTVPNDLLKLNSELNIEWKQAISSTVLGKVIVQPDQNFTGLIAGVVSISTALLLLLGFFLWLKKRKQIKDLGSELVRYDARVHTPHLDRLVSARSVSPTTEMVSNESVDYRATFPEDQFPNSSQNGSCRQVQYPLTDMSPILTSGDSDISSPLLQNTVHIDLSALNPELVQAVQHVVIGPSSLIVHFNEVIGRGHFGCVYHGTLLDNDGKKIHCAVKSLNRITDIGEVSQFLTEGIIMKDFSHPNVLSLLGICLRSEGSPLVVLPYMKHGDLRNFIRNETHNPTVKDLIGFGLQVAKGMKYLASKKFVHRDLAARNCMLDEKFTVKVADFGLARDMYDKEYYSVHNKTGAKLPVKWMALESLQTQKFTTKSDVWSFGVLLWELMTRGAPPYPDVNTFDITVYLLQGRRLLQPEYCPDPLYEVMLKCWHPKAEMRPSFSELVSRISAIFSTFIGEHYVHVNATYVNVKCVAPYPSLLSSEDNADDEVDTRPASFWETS
Assay endpoint: c-Met Inhibitory rate (%)

[[record]]
molecular_string = "COCCOc1cc2ncnc(Oc3ccc(NC(=O)c4c5n(n(-c6cc(F)ccc6F)c4=O)CCCC5)cc3F)c2cc1OCCOC"
readout_number = 100

[[record]]
molecular_string = "COCCOc1cc2ncnc(Oc3ccc(NC(=O)c4c5n(n(-c6ccccc6F)c4=O)CCCC5)cc3C(F)(F)F)c2cc1OCCOC"
readout_number = 89.8

[[record]]
molecular_string = "COCCOc1cc2ncnc(Oc3ccc(NC(=O)c4c5n(n(-c6ccccc6F)c4=O)CCCC5)c(F)c3)c2cc1OCCOC"
readout_number = 95.9

[[record]]
molecular_string = "COCCOc1cc2ncnc(Oc3ccc(NC(=O)c4c5n(n(-c6ccccc6)c4=O)CCCC5)cc3C(F)(F)F)c2cc1OCCOC"
readout_number = 96.6

[[record]]
molecular_string = "COCCOc1cc2ncnc(Oc3ccc(NC(=O)c4c5n(n(-c6ccc(F)cc6)c4=O)CCCC5)c(F)c3)c2cc1OCCOC"
readout_number = 95.4

[[record]]
molecular_string = "O=C(Nc1ccc(Oc2ncnc3cc4c(cc23)OCCOCCOCCO4)c(Cl)c1)c1c2n(n(-c3ccccc3)c1=O)CCCC2"
readout_number = 100

[[record]]
molecular_string = "COc1cc2ncnc(Oc3ccc(NC(=O)c4c5n(n(-c6ccccc6F)c4=O)CCCC5)c(F)c3)c2cc1OC"
readout_number = 94.1

[[record]]
molecular_string = "O=C(Nc1ccc(Oc2ncnc3[nH]cc(-c4ccccc4)c23)c(F)c1)c1c2n(n(-c3ccccc3)c1=O)CCCC2"
readout_number = 94.1

[[record]]
molecular_string = "O=C(Nc1ccc(Oc2ncnc3cc4c(cc23)OCCOCCOCCO4)c(F)c1)c1c2n(n(-c3cc(F)ccc3F)c1=O)CCCC2"
readout_number = 99.2

[[record]]
molecular_string = "COc1cc2nccc(Oc3ccc(NC(=O)c4c5n(n(-c6ccccc6)c4=O)CCCC5)cc3F)c2cc1OC"
readout_number = 100

[[record]]
molecular_string = "COCCOc1cc2ncnc(Oc3ccc(NC(=O)c4c5n(n(-c6ccc(F)cc6)c4=O)CCCC5)cc3Cl)c2cc1OCCOC"
readout_number = 89.1

[[record]]
molecular_string = "COCCOc1cc2ncnc(Oc3ccc(NC(=O)c4c5n(n(-c6cc(F)ccc6F)c4=O)CCCC5)c(F)c3)c2cc1OCCOC"
readout_number = 100

[[record]]
molecular_string = "COc1cc2ncnc(Oc3ccc(NC(=O)c4c5n(n(-c6ccccc6)c4=O)CCCC5)cc3F)c2cc1OC"
readout_number = 100

[[record]]
molecular_string = "COCCOc1cc2ncnc(Oc3ccc(NC(=O)c4c5n(n(-c6cc(F)ccc6F)c4=O)CCCC5)cc3Cl)c2cc1OCCOC"
readout_number = 93.5


---

molecular target: receptor tyrosine kinase c-Met (Homo sapiens); assay: In vitro c-Met kinase inhibitory activity; assay type: biochemical; settings: 10 nM; two values per compound; 0.01 µM
Assay endpoint: c-Met Inhibitory rate (%)

[[record]]
molecular_string = "COCCOc1cc2ncnc(Oc3ccc(NC(=O)c4c5n(n(-c6ccccc6)c4=O)CCCC5)cc3C(F)(F)F)c2cc1OCCOC"
target_desc = "receptor tyrosine kinase c-Met (Homo sapiens)"
readout_number = 68.4

[[record]]
molecular_string = "O=C(Nc1ccc(Oc2ncnc3[nH]cc(-c4ccccc4)c23)c(F)c1)c1c2n(n(-c3cc(F)ccc3F)c1=O)CCCC2"
target_desc = "receptor tyrosine kinase c-Met (Homo sapiens)"
readout_number = 74.2

[[record]]
molecular_string = "O=C(Nc1ccc(Oc2ncnc3cc4c(cc23)OCCOCCOCCO4)c(F)c1)c1c2n(n(-c3ccccc3)c1=O)CCCC2"
target_desc = "receptor tyrosine kinase c-Met (Homo sapiens)"
readout_number = 62.4

[[record]]
molecular_string = "COCCOc1cc2ncnc(Oc3ccc(NC(=O)c4c5n(n(-c6ccccc6F)c4=O)CCCC5)cc3C(F)(F)F)c2cc1OCCOC"
target_desc = "receptor tyrosine kinase c-Met (Homo sapiens)"
readout_number = 53.1

[[record]]
molecular_string = "COc1cc2ncnc(Oc3ccc(NC(=O)c4c5n(n(-c6ccc(F)cc6)c4=O)CCCC5)cc3C(F)(F)F)c2cc1OC"
target_desc = "receptor tyrosine kinase c-Met (Homo sapiens)"
readout_number = 60.9

[[record]]
molecular_string = "COc1cc2ncnc(Oc3ccc(NC(=O)c4c5n(n(-c6cc(F)ccc6F)c4=O)CCCC5)c(F)c3)c2cc1OC"
target_desc = "receptor tyrosine kinase c-Met (Homo sapiens)"
readout_number = 68.5

[[record]]
molecular_string = "O=C(Nc1ccc(Oc2ncnc3[nH]cc(-c4ccccc4)c23)c(F)c1)c1c2n(n(-c3ccccc3F)c1=O)CCCC2"
target_desc = "receptor tyrosine kinase c-Met (Homo sapiens)"
readout_number = 45.1

